Test system: SK-MEL-2
Assay: NCI tumour cell line growth inhibition, 48 h
Activity calls are given as the source filed them. Cut-off read from the data, not from the text of the source: active = GI50 up to about 1.1 µM and inactive = higher.
measure: GI50

// query Find the recorded GI50 belonging to COc1ccc2c(c1)c1nn(CCN3CCCCC3)c3ccc4c(=O)n(CCN(C)C)c(=O)n2c4c13 and report it.
// result 0.04 µM (active)

// query Suppose we examine the compound C#CC[N+](CCO)(CCO)CCCCCCCCCCCCCCCCCC ; what GI50 value has been reported?
// result 16.4 µM (inactive)

// query Tell me the measured GI50 of CCOP1(=O)OCC2OC(n3cnc4c(N)ncnc43)C(O)C2O1.c1ccccc1 (centres undefined) , please.
// result > 100 µM (inactive)

// query Requested read-out: GI50. Entry: Cc1ccc(NC(=O)c2cccc(OP(=O)(Nc3ccc(C)cc3)Nc3ccc(C)cc3)c2)cc1
// result 15.3 µM (inactive)

// query # query: GI50 of entry Cc1nc2sc3ccccc3n2c(=O)c1/N=N/c1ccc(Br)cc1
// result 81.5 µM (inactive)

// query Find the recorded GI50 belonging to COC(=O)CC1CCN(C#N)CC1CC[N+](=O)[O-] (centres undefined) and report it.
// result > 100 µM (inactive)

// query Would you mind telling me what GI50 value was observed for COc1cc(/C=C/C(C)=O)ccc1OP(=O)(O)O ?
// result > 100 µM (inactive)

// query Need GI50 of CO/N=C(\C)c1ccc(Nc2c3ccccc3nc3occc23)cc1 , thanks.
// result 0.244 µM (active)

// query Quick check: GI50 of O=C(CCCCCCCCC(=O)N1C(=O)CC(=O)N(c2cccc(Cl)c2)C1=S)N1C(=O)CC(=O)N(c2cccc(Cl)c2)C1=S ?
// result 37.7 µM (inactive)

====

Tested on: IGROV-1
Experiment: NCI tumour cell line growth inhibition, 48 h
Calls of active or inactive are those of the source. Cut-off read from the data, not from the text of the source: active = GI50 up to about 1.1 µM and inactive = higher.
In this exercise, the only acceptable responses are yes = active, no = inactive

// query Tell me the assay call for COc1ccc2cc(NC(=O)Nn3cnnc3)ccc2c1 please.
// result no

// query GET /call?item= C/C(CC(=O)N(C(C)C)C(C)C)=N\NC(=O)c1ccncc1 returns the recorded outcome of this test.
// result no

// query Hi, do you know how O=C(c1ccc(Cl)cc1)c1ccc(OCCSCCCCCCCCCCSCCOc2ccc(C(=O)c3ccc(Cl)cc3)cc2)cc1 came out in this test?
// result no

// query Answer briefly: the call reported for COc1cc2nc(-c3ccccc3)cc(O)c2cc1OC in this assay.
// result no

// query Returns: the outcome recorded for O=c1[nH][nH]c(=S)c(=O)[nH]1 in this assay.
// result no

// query Please indicate how the test categorized COc1ccc(/N=c2/[nH]c(N)c(C(=O)c3ccc(OC)cc3)s2)cc1 .
// result yes

// query Query: recorded result category for C=C[C@H]1CC[C@H]2[C@@H]3CC=C4C[C@@H](OC5OCC(O)C(O)C5O)CC[C@]4(C)[C@H]3CC[C@]12C (stereo not given in full) in this test
// result no

// query Per the assay record, what outcome was assigned to COc1cc(OC(C)=O)cc2c(OC(C)=O)ccc(OC(C)=O)c12 ?
// result no

// query Per the records of this test, what outcome belongs to O=C(C(=O)c1cc(-c2ccccc2)nc2ccc3ccccc3c12)c1ccccc1 ?
// result no

// query Any idea what this test logged for O=C(c1ccccc1)c1nc2c(Cl)ccc(Cl)c2cc1C(Br)Br ?
// result no

// query Could you kindly confirm the outcome this assay logged for CC(=O)Oc1c(-c2ccccc2)[nH]c2cc([N+](=O)[O-])c(/C(Cl)=C/c3ccccc3)cc12 ?
// result no

// query Hello, I am checking results. What call was entered for CCC(=O)CCC1=Nc2nnc(CCCCc3nnc4n3C(=O)C(CCC(=O)CC)=N4)n2C1=O ?
// result no

// query How did this test come out for COC(=O)[C@H](Cc1ccccc1)NC(=O)c1ccc(CNC(=O)/C=C/c2ccc(-c3ccccc3)cc2)cc1 ?
// result no

// query // outcome(item) with item = Cc1nc(NC(C)(CO)CO)nc(N/N=C/c2ccc(Cl)cc2)c1C(=O)Nc1ccc(Cl)cc1
// result no

// query Any idea what this test logged for O=C1CCCC2=C1CC1=C(CCCC1=O)N2c1ccc(Cl)cc1 ?
// result no

// query Recorded test outcome, item C=C1C(=O)OC2C=C(C)CC3C=C(CCC=C(C)CCC12)C(=O)O3 (stereo not given)
// result no

// query Outcome? CCCCCCCC1(N=[N+]=[N-])C(=O)Nc2ccccc2C1=O (stereo not given)
// result no

// query Hello, I am checking results. What call was entered for O=C1Oc2ccccc2C(=O)/C1=C/N1C(=O)N/C(=C\c2ccccc2O)C1=O ?
// result no

// query Kindly provide the recorded test outcome for the following molecule: Cc1ccc(S(=O)(=O)N2CCC2c2ccccc2)cc1 (stereo not given)
// result no

// query Please let me know the test result on file for O=C(CC/C(CC(=O)c1ccc(Cl)cc1)=N/O)Nc1ccc(Cl)c(Cl)c1 .
// result no
